- Tested on: K-562 leukemia
- assay-protocol: NCI-60 one-dose screen, 48 h (100 = growth as untreated, 0 = no growth, -100 = all killed)
- applied-conditions: 10 µM unless noted
This is part of a sample that, as a whole, favours compounds with a hit. Of some 83,000 tested, about 20% had one in any assay.
measure-name: growth (%)
Return type: number; implicit unit %.

Completed entries (count: 6):
1. CCCC1CCC(O)(C(C)(O)C(=O)NC2C(=O)N3NCCCC3C(=O)N(O)C(C)C(=O)N3NCCCC3C(=O)N3NCC(O)CC3C(=O)NC(C)C(=O)OC2C(C)C)OC1CC (stereo unspecified): -61.6
2. NC(=O)Nc1ccc2ncnc(Nc3ccc(Cl)cc3)c2c1: 71.4
3. O=c1c2cc(C(F)(F)F)ccc2sc2c(NCCCNCCO)nc3ccccc3c12: -47.1
4. Cc1ccc(NC2=C(Cl)C(=O)c3nc(C)ccc3C2=O)cc1: 6.64
5. Cc1cc2nc3cc(C)c(N)cc3[n+](-c3ccccc3)c2cc1N: 32.4
6. Cc1nc(/N=C(\N)NC(=O)Nc2ccccc2Cl)sc1C: 13.1

Input: Recorded growth of `COc1cc(CCC[P+](c2ccccc2)(c2ccccc2)c2ccccc2)c(OC)c2c1OCO2` , please.
Output: 14.4
